The reported numbers originate from patent US20240182536A1.

Molecular target: T1, IL-18 binding protein (IL-18BP) (UniProt O95998 31-194); further: unit not given here
T1 sequence (looked up): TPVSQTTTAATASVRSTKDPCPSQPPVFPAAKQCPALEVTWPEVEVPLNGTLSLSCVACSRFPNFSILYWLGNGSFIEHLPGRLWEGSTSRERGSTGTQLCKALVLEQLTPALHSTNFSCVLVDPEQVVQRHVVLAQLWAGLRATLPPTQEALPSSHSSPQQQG
Test: cell-based or functional assay
The reader will find reported Activity, +100 nM BP, DF-5000003 values listed item by item below.
// response body must contain only the number

Q. Entry IL-18 variant K53T, D54H, S55V, T63A, N91K (ligand) YFGKLESKLSVIRNLNDQVLFIDQGNRPLFEDMTDSDMRDNAPRTIFIISMYTHVQPRGMAVAISVKSEKISTLSSENKIISFKEMNPPDKIKDTKSDIIFFQRSVPGHDNKMQFESSSYEGYFLASEKERDLFKLILKKEDELGDRSIMFTVQNED : reported Activity, +100 nM BP, DF-5000003 = ?
A. 0.1

Turning to the following binder.
Q. Entry IL-18 variant G3P, E6H, D54A, S55P, Q56K, T63S, N91M (ligand) YFPKLHSKLSVIRNLNDQVLFIDQGNRPLFEDMTDSDMRDNAPRTIFIISMYKAPKPRGMAVSISVKSEKISTLSSENKIISFKEMNPPDMIKDTKSDIIFFQRSVPGHDNKMQFESSSYEGYFLASEKERDLFKLILKKEDELGDRSIMFTVQNED : reported Activity, +100 nM BP, DF-5000003 = ?
A. 0.61
